Where do these numbers come from? They come from patent US20260209352A1.

Assay target: Cyno CD3εδ-Fc (cynomolgus) (UniProt Q95LI8)
Sequence (chain, as listed by the source mutant, chain 1 of 2): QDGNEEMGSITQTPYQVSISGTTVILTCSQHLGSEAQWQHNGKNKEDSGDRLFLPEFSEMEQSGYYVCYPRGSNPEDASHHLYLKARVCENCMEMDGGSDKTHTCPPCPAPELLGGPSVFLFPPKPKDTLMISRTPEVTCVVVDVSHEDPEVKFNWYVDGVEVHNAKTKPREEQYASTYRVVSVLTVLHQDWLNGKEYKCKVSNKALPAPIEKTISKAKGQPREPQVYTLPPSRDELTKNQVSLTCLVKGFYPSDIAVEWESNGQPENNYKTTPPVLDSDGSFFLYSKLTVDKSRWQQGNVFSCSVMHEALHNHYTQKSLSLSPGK
Sequence (Q95LI8 22-105, stated change not applied, chain 2 of 2): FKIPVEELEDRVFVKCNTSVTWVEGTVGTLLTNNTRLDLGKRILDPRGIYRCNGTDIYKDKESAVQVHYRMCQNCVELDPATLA
Protocol summary: KD of scFv-Fc or IgG on cyno CD3εδ-Fc; instrument not given
Measured Kd of individual entries

Binder	Kd / nM
ADI-45960 (antibody, V domains shown, also called Ab23) VH: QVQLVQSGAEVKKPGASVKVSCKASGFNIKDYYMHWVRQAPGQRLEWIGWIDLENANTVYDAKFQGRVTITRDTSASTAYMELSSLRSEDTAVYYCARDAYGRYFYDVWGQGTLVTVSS VL: DIVMTQSPDSLAVSLGERATINCKSSQSLLNARTGKNYLAWYQQKPGQPPKLLIYWASTRESGVPDRFSGSGSGTDFTLTISSLQAEDAAVYYCAQSYFRRTFGGGTKVEIK	1.8
ADI-42594 (antibody, V domains shown, also called Ab1) VH: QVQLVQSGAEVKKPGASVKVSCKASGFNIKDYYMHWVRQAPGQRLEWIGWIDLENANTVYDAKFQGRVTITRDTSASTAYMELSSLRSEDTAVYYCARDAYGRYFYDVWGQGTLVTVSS VL: DIVMTQSPDSLAVSLGERATINCKSSQSLLNARTGKNYLAWYQQKPGQPPKLLIYWASTRESGVPDRFSGSGSGTDFTLTISSLQAEDVAVYYCKQSYFRRTFGGGTKVEIK	2
ADI-45966 (antibody, V domains shown, also called Ab29) VH: QVQLVQSGAEVKKPGASVKVSCKASGFNIKDYYMHWVRQAPGQRLEWIGWIDLENANTVYDAKFQGRVAITRDTSASTAYMELSSLRSEDTAVYYCARDAYGRYFYDVWGQGTLVTVSS VL: DIVMTQSPDSLAVSLGERATINCKSSQSLLNARTGKNYLAWYQQKPGQPPKLLIYWASTRESGVPDRFSGSGSGTDFTLTISSLQAEDVAVYYCTQSYFRRTFGGGTKVEIK	1.2
ADI-45977 (antibody, V domains shown, also called Ab14) VH: QVQLVQSGAEVKKPGASVKVSCKASGFNIKDYYMHWVRQAPGQRLEWIGWIDLENANTVYDAKLQGRVTITRDTSASTAYMELSSLGSEDTAVYYCARDAYGRYFYDVWGQGTLVTVSS VL: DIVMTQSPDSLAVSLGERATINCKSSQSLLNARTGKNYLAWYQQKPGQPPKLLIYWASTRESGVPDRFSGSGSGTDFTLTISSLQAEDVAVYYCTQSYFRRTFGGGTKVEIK	1.1
